- System: MDA-MB-231 breast
- protocol-notes: NCI tumour cell line growth inhibition, 48 h
quantity: TGI

Solved cases (4 shown):
• Cc1ccc(/C=N\NC(=O)c2[nH]c3ccc(F)cc3c2-c2ccccc2)cc1 = 0.129 µM
• CCc1nn(CN2CCOCC2)c(=S)n1/N=C/c1ccc(-c2ccc(Cl)cc2)o1 = > 100 µM
• CCOC(=O)/C(C=Nc1c(C)n(C)n(-c2ccccc2)c1=O)=C(/C)O = > 100 µM
• Fc1ccc(/C=N/n2c(-c3ccc(F)c(Cl)c3)nn(CNc3ccccc3C(F)(F)F)c2=S)cc1 = > 100 µM

So, C=CCC1(OCc2ccccc2)C(=O)C(=O)OC1C1COC(C)(C)O1 (stereo not given) ? Its TGI was > 100 µM
